# Test Name: IRF3 reporter activation in THP-1 macrophages, cell-based, PMA-stimulated THP-1, luminescence (AID 1053176)
# Condition: PMA-differentiated THP-1, IRF3 reporter luminescence; active compounds read high
Give measured fraction signal for each item. Keep answers brief.
Answers are plain numbers.

[
  {
    "Structure Smiles String": "CCn1c(-c2nonc2N)nc2cncc(C(=O)N3CCNCC3)c21",
    "Readout Kind": "fraction signal",
    "Obs Value": -0.005
  },
  {
    "Structure Smiles String": "Cc1cc(C)c2c(n1)sc1c(N)ncnc12",
    "Readout Kind": "fraction signal",
    "Obs Value": 0.0035
  },
  {
    "Structure Smiles String": "Clc1ccc(-c2nn3ncccc3c2-c2ccnc(Nc3ccccc3)n2)cc1",
    "Readout Kind": "fraction signal",
    "Obs Value": -0.004
  },
  {
    "Structure Smiles String": "Cn1c(=O)c(Oc2ccc(F)cc2F)cc2cnc(NC3CCS(=O)(=O)CC3)nc21",
    "Readout Kind": "fraction signal",
    "Obs Value": 0.001
  }
]

Lab note: next compound to report on.
fraction signal measured on COc1cc2c(cc1Nc1nc(Nc3cccc(F)c3C(N)=O)c3cc[nH]c3n1)N(C(=O)CN1CCN(C(C)C)CC1)CC2 = 0.004

###

Would you mind telling me the reported viability decrease of each entry?
# Test Name: growth inhibition of GSK3B-pretreated HCT116 cells – cell-based, CellTiter-Glo, 0.2 to 20 µM (AID 1117336)
# Condition: HCT116 viability after GSK3B inhibitor, at 20 µM, active compounds read high
Numbers only, in %.

Some molecules with recorded viability decrease:
[
  {
    "Structure Smiles String": "C=Cc1c(C)c2cc3nc(cc4[nH]c(cc5nc(cc1[nH]2)C(C)=C5CCC(=O)O)c(CCC(=O)OC)c4C)[C@@]1(C)C3=CC=C(C(=O)OC)[C@@H]1C(=O)OC",
    "viability decrease, %": 97.7
  },
  {
    "Structure Smiles String": "O=C(OCCN1CCOCC1)c1cccnc1Nc1cccc(C(F)(F)F)c1",
    "viability decrease, %": 42
  },
  {
    "Structure Smiles String": "c1ccc(CCNc2nc(-c3ccccc3)cs2)cc1",
    "viability decrease, %": 38.9
  },
  {
    "Structure Smiles String": "O=C(O)CNC(=O)CNC(=O)CNC(=O)CSC(=O)c1ccccc1",
    "viability decrease, %": -1.9
  },
  {
    "Structure Smiles String": "CCCCOC(=O)CCCCCCCCC(=O)OCCCC",
    "viability decrease, %": 10.4
  }
]

Please go through the list and note viability decrease for each molecule.
1. CC(=O)OCC(CCn1cnc2cnc(N)nc21)COC(C)=O
2. CCCCCCCCCCCCCCCCCCN(C)C
3. CC(=O)Oc1ccc(C2(c3ccc(OC(C)=O)cc3)C(=O)Nc3ccccc32)cc1
4. Cc1cc2nc3c(=O)[nH]c(=O)nc-3n(C[C@H](O)[C@H](O)[C@H](O)COP(=O)(O)OP(=O)(O)OC[C@H]3O[C@@H](n4cnc5c(N)ncnc54)[C@H](O)[C@H]3O)c2cc1C

Return:
-11.8
1.2
32.6
-3.6

###

# Tested Target: Cellular tumor antigen p53 (Homo sapiens) (UniProt P04637)
# Sequence (P04637 whole entry, looked up): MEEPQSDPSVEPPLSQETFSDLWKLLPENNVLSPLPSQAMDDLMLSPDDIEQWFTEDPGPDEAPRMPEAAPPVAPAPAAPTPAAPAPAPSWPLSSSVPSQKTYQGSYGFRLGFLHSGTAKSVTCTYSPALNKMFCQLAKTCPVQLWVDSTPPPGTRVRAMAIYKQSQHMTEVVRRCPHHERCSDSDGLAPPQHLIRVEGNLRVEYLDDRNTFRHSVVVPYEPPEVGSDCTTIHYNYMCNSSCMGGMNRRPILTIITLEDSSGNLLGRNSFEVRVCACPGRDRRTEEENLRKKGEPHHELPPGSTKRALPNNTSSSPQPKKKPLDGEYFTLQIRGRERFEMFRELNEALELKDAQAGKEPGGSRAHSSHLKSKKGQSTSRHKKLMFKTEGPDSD
# Test Name: kinase inhibitors altering GFP-p53 stability in HPV16-positive cells, imaging, known kinase inhibitor set, EGFP/DsRed ratio (AID 1053116);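 also: cells exposed to compounds for 24 h at 37 °C before reading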
# Condition: active compounds read high
The source made the active and inactive calls. How the calls were made is not given here.
Give measured EGFP/DsRed ratio for each item. Keep answers brief.

Field: example entries. Status: answers known.
[
  {
    "Compound": "Cn1cc(C2=C(c3cccc4ccccc34)C(=O)NC2=O)c2ccccc21",
    "Tested Target": "Cellular tumor antigen p53 (Homo sapiens) (UniProt P04637)",
    "Obs Value": "0.386 (inactive)"
  },
  {
    "Compound": "Cn1cc(C2=C(c3c(S(C)=O)n(C)c4ccccc34)C(=O)NC2=O)c2ccccc21 (stereo not given)",
    "Tested Target": "Cellular tumor antigen p53 (Homo sapiens) (UniProt P04637)",
    "Obs Value": "0.591 (inactive)"
  },
  {
    "Compound": "COc1ccc(COc2ccc(Cc3cnc(N)nc3N)cc2OC)cc1",
    "Tested Target": "Cellular tumor antigen p53 (Homo sapiens) (UniProt P04637)",
    "Obs Value": "0.0511 (inactive)"
  },
  {
    "Compound": "COc1cc2ncn(-c3cc(OCc4ccccc4C(F)(F)F)c(C(C)=O)s3)c2cc1OC",
    "Tested Target": "Cellular tumor antigen p53 (Homo sapiens) (UniProt P04637)",
    "Obs Value": "0.118 (inactive)"
  }
]

As a next step, examine the compound that follows.
Summary for this compound, Cn1cc(C2=C(c3cn(CCCCN)c4ccccc34)C(=O)NC2=O)c2ccccc21 : EGFP/DsRed ratio is 0.117 (inactive)
